B1: SH3 and PX domain-containing protein 2B, residues 155 to 209; numbered along this chain, A1X283 (parent)
chain: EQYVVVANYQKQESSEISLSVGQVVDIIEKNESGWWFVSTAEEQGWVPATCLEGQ

# Variants of: B1
# EXPERIMENT_DESCRIPTION: abundance fitness (aPCA) (normalised: wild type 0, dead -1); higher = more abundant; growth selection in yeast, the domain comes from the species named
# ASSAY_CONDITIONS: Homo sapiens
OBSERVATION_TYPE: abundance fitness
// return a plain number; no unit text

Input line: Item S33T has what recorded abundance fitness?
Output line: -0.086

Input line: Data request, read-out abundance fitness, for E16I
Output line: -0.692

Input line: Endpoint output: abundance fitness of E32I . Value?
Output line: -0.066

Input line: Recorded abundance fitness for V6W , please?
Output line: -0.326

Input line: Could you tell me which abundance fitness is on file for D26K ?
Output line: 0.028

Input line: Which abundance fitness value belongs to I27R ?
Output line: -0.277

Input line: Tell me the measured abundance fitness of Q2H , please.
Output line: -0.178

Input line: Give the measured abundance fitness of V4C .
Output line: -0.01

Input line: Suppose we examine the variant W35G ; what abundance fitness value has been reported?
Output line: -0.398

Input line: What value of abundance fitness has been reported for the following variant? L19T
Output line: -0.604

Input line: Look at this variant and give its reported abundance fitness. G34I
Output line: -0.579

Input line: Dear colleague, I am looking for the recorded abundance fitness of the following variant: V4E
Output line: 0.003

Input line: Which abundance fitness is listed for E53C ?
Output line: -0.14

Input line: What measured abundance fitness goes with N31A ?
Output line: -0.114

Input line: Look up abundance fitness: V47R
Output line: -0.72

Input line: # query: abundance fitness of entry V38D
Output line: -0.736

Input line: Which measured abundance fitness value corresponds to Q44E ?
Output line: -0.143

Input line: Entry under review: A49K . Reported abundance fitness?
Output line: -0.053

Input line: Given the variant I28V , what is its reported abundance fitness?
Output line: 0.027

Input line: Recorded abundance fitness of D26M , please.
Output line: -0.134

Input line: Requested read-out: abundance fitness. Entry: G22I
Output line: -1.05

Input line: Request the reported abundance fitness associated with S20F
Output line: -0.085

Input line: State the recorded abundance fitness for this entry: S15C
Output line: -0.063
